Species: Rattus norvegicus
assay.notes: DrugMatrix - Regimen: Daily Repeat
Assay type: toxicity, organism-based, Sprague-Dawley
Design: regimen Daily Repeat, gender Male, age 6-8 weeks
test.context: in vivo, po, 0 mg/kg, 120 h, tissue Blood, route oral GAVAGE, dose level Control, time 5 day, vehicle 100 % WATER
For each entry below, report its PLATELET COUNT value.
Answers are plain numbers, in x10E3/uL.

Some entries whose results are on file:
CN1C(=O)OC(C)(C)C1=O    1190.6
C[N+](C)(C)CCOC(N)=O.[Cl-]    1141
Cc1cn([C@H]2C=C[C@@H](CO)O2)c(=O)[nH]c1=O    1141

Please report PLATELET COUNT for every entry that follows.
1. CC(Cl)(Cl)Cl
2. Cc1cc(C(C)(C)C)c(O)c(C)c1CC1=NCCN1
3. CCN(CC)C(=S)SSC(=S)N(CC)CC
4. C1CCN2C[C@@H]3C[C@@H](CN4CCCC[C@@H]34)[C@H]2C1
5. CCC1(c2ccccc2)C(=O)NC(=O)NC1=O

A:
1: 1186.67; 2: 1044; 3: 1223.5; 4: 1186.67; 5: 1144.83

NN [HYDRAZINE] has a reported PLATELET COUNT of 1198
